- Assay Name: Drug level in tumor of Karpas-299 cells xenografted mouse at 30 mg/kg, po administered as single dose measured after 12 hrs
- Assay type: ADME, organism-based, Neoplasm
- Set-up: dose 30 mg/kg, route oral
- Experimental Parameters: read-out: Drug uptake
Recorded Metric: concentration at 12 h (ng/g)
State the answer as a number, implicitly in ng/g.

Data request: Look up and report measured concentration at 12 h for this entry: COCCN1CCc2cc(Nc3ncc(Cl)c(N[C@@H]4CCCC[C@H]4NS(C)(=O)=O)n3)c(OC)cc2CC1
Data returned: 279

* * *

- Assay Name: AUC (0 to t) in Sprague-Dawley rat at 1 mg/kg, iv
- Assay type: ADME, organism-based
- Set-up: dose 1 mg/kg, route intravenous
- Experimental Parameters: plasma
Recorded Metric: AUC(0-t) (ng·h/mL)
State the answer as a number, implicitly in ng·h/mL.

Data request: Look up and report measured AUC(0-t) for this entry: COCCN1CCc2cc(Nc3ncc(Cl)c(N[C@@H]4CCCC[C@H]4NS(C)(=O)=O)n3)c(OC)cc2CC1
Data returned: 72

* * *

- Assay Name: Plasma concentration in Karpas-299 cells xenografted mouse at 30 mg/kg, po administered as single dose measured after 2 hrs
- Format: ADME, organism-based
- Set-up: dose 30 mg/kg, route oral
Recorded Metric: concentration at 2 h (ng/mL)
State the answer as a number, implicitly in ng/mL.

Data request: Look up and report measured concentration at 2 h for this entry: COCCN1CCc2cc(Nc3ncc(Cl)c(N[C@@H]4CCCC[C@H]4NS(C)(=O)=O)n3)c(OC)cc2CC1
Data returned: 2740

* * *

Would you mind telling me the reported pIC50 of each entry?
- Measurement Target: ALK tyrosine kinase receptor (Homo sapiens, UniProt Q9UM73)
- Sequence (Q9UM73 whole entry): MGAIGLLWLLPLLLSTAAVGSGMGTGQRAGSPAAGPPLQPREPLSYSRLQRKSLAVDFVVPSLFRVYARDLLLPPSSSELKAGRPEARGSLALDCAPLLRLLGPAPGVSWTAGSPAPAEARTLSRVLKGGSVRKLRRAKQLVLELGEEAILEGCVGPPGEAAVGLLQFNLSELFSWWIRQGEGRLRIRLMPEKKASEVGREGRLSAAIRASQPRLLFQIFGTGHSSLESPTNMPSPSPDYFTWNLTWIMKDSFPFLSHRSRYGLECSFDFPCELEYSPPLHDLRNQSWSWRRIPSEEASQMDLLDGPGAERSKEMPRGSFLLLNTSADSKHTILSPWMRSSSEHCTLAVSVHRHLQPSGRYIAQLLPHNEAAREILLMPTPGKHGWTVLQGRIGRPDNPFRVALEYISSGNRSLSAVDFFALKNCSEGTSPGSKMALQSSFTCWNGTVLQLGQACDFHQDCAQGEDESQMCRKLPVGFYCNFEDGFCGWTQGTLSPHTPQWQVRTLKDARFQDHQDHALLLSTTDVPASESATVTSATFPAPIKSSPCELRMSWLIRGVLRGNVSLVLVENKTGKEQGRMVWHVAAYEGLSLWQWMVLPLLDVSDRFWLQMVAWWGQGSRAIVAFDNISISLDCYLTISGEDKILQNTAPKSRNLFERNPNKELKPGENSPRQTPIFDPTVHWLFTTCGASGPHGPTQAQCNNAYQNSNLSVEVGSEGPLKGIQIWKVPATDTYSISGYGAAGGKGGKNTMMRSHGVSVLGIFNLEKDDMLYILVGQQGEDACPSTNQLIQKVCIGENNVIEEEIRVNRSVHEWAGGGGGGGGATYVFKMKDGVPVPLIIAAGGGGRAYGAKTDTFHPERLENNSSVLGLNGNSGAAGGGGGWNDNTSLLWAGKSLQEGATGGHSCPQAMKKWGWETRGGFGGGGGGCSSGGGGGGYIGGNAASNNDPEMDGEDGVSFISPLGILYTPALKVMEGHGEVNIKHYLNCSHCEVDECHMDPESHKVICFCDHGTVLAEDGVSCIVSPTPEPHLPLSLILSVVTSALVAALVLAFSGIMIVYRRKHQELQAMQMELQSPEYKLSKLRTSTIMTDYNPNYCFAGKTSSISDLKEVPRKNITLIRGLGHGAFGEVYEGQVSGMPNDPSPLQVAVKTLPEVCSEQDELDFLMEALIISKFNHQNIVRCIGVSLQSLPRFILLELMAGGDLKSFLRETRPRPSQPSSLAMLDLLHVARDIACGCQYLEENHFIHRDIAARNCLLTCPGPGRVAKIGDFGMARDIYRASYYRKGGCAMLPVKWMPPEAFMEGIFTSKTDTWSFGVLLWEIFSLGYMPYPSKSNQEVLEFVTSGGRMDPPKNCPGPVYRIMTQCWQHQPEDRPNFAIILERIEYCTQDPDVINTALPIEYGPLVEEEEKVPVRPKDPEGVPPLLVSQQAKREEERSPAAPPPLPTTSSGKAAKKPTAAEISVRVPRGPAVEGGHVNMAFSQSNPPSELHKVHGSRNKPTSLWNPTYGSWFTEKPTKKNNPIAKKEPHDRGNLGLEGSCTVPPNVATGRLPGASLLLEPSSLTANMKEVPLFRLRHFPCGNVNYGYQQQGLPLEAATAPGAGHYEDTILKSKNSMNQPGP
- Assay Name: Inhibition of ALK
Quick note: pIC50 values are minus log10 of concentrations in mol/L.

Data request: Look up and report measured pIC50 for this entry: COCCN1CCc2ccc(Nc3ncc(Cl)c(N[C@@H]4CCCC[C@H]4NS(=O)(=O)CC(F)(F)F)n3)cc2CC1
Data returned: 7.51

Data request: Look up and report measured pIC50 for this entry: COc1cc(N2CCOCC2)ccc1Nc1ncc(Cl)c(N[C@@H]2CCCC[C@@H]2NS(C)(=O)=O)n1 (racemic)
Data returned: 6.48

Data request: Look up and report measured pIC50 for this entry: CCN1CCc2ccc(Nc3ncc(Cl)c(N[C@@H]4CCCC[C@H]4NC(=O)C(F)(F)F)n3)cc2CC1
Data returned: 7.59

Data request: Look up and report measured pIC50 for this entry: COc1cc(N2CCOCC2)ccc1Nc1ncc(Cl)c(N[C@@H]2CCCC[C@H]2NS(C)(=O)=O)n1
Data returned: 8.00

Data request: Look up and report measured pIC50 for this entry: COCCN1CCc2cc(Nc3ncc(Cl)c(N[C@@H]4CCCC[C@H]4N(C)S(C)(=O)=O)n3)c(OC)cc2CC1
Data returned: 8.52

Data request: Look up and report measured pIC50 for this entry: COCCN1CCc2ccc(Nc3ncc(Cl)c(N[C@H]4CC[C@H](NS(C)(=O)=O)CC4)n3)cc2CC1
Data returned: 7.00

Data request: Look up and report measured pIC50 for this entry: COCCN1CCc2ccc(Nc3ncc(Cl)c(NC4CCCCC4)n3)cc2CC1
Data returned: 7.11

Data request: Look up and report measured pIC50 for this entry: CCN1CCc2ccc(Nc3ncc(Cl)c(N[C@@H]4CCCC[C@H]4NC(C)=O)n3)cc2CC1
Data returned: 8.05

Data request: Look up and report measured pIC50 for this entry: COCCN1CCc2ccc(Nc3ncc(Cl)c(N[C@@H]4CCCC[C@H]4N)n3)cc2CC1
Data returned: 6.17

Data request: Look up and report measured pIC50 for this entry: COCCN1CCc2ccc(Nc3ncc(Cl)c(N[C@@H]4CCCC[C@H]4NS(=O)(=O)C(C)C)n3)cc2CC1
Data returned: 6.89

Data request: Look up and report measured pIC50 for this entry: CCN([C@@H]1CCCC[C@H]1Nc1nc(Nc2cc3c(cc2OC)CCN(CCOC)CC3)ncc1Cl)S(C)(=O)=O
Data returned: 7.70

* * *

Would you mind telling me the reported pIC50 of each entry?
- Measurement Target: ALK tyrosine kinase receptor (Homo sapiens, UniProt Q9UM73)
- Assay Name: Inhibition of ALK
pIC50: −log10 of the molar value.

Data request: Look up and report measured pIC50 for this entry: COCCN1CCc2ccc(Nc3ncc(Cl)c(N[C@@H]4CCC[C@@H](NS(C)(=O)=O)C4)n3)cc2CC1 (racemic)
Data returned: < 5.52

Data request: Look up and report measured pIC50 for this entry: COc1cc(N2CCOCC2)ccc1Nc1ncc(Cl)c(N[C@H]2CCCC[C@@H]2NS(C)(=O)=O)n1
Data returned: < 5.00

Data request: Look up and report measured pIC50 for this entry: COCCN1CCc2ccc(Nc3ncc(Cl)c(N[C@@H]4CCC[C@H](NS(C)(=O)=O)C4)n3)cc2CC1 (racemic)
Data returned: < 5.52
